Below is a list of entries, each paired with its recorded inhibition value.
- testedOn: RPS6KA1 KD1 KD2 (human)
- protocolNotes: Caliper, Mobility shift assay off-chip
- cond: compound 1.0 µM
Dear colleague, please return just the value in %, with no unit written.

Solved cases below.
Q: Sample CN(c1ccc2ccc3ncc(-c4cnn(C)c4)cc3c(=O)c2c1)S(=O)(=O)NCc1ccccn1 — what was its inhibition?
A: 2.1

Q: Sample O=C(CCc1ccc2ccc3ncc(C4CCNCC4)cc3c(=O)c2c1)NCc1ccccn1 — what was its inhibition?
A: 4

Q: Sample Cn1cc(-c2cnc3ccc4ccc(CS(N)(=O)=O)cc4c(=O)c3c2)cn1 — what was its inhibition?
A: -3

Q: Sample Cn1cc(-c2cnc3ccc4ccc(CS(=O)(=O)NCC5CCCCN5)cc4c(=O)c3c2)cn1 (stereo not given) — what was its inhibition?
A: 0

Attention now shifts to the item below.
Q: Sample Cn1cc(-c2cnc3ccc4ccc(CS(=O)(=O)CCc5ccccn5)cc4c(=O)c3c2)cn1 — what was its inhibition?
A: -0.8
